target: T1, ErbB3 (Rattus norvegicus, UniProt Q62799); assay: In vitro phosphorylation of Akt in rat Schwann cells; type: cell-based; details: Akt (Serine 473) phosphorylation, 15 minutes treatment, read-out: Schwann cells (SC) (ErbB3) Avg EC50
T1 construct: forming the ErbB2/ErbB4 complex in cardiomyocytes and the ErbB2/ErbB3 complex in Schwann cells; endogenous in cells; host or cells: rat Schwann cells
T1 sequence (Q62799 20-1339): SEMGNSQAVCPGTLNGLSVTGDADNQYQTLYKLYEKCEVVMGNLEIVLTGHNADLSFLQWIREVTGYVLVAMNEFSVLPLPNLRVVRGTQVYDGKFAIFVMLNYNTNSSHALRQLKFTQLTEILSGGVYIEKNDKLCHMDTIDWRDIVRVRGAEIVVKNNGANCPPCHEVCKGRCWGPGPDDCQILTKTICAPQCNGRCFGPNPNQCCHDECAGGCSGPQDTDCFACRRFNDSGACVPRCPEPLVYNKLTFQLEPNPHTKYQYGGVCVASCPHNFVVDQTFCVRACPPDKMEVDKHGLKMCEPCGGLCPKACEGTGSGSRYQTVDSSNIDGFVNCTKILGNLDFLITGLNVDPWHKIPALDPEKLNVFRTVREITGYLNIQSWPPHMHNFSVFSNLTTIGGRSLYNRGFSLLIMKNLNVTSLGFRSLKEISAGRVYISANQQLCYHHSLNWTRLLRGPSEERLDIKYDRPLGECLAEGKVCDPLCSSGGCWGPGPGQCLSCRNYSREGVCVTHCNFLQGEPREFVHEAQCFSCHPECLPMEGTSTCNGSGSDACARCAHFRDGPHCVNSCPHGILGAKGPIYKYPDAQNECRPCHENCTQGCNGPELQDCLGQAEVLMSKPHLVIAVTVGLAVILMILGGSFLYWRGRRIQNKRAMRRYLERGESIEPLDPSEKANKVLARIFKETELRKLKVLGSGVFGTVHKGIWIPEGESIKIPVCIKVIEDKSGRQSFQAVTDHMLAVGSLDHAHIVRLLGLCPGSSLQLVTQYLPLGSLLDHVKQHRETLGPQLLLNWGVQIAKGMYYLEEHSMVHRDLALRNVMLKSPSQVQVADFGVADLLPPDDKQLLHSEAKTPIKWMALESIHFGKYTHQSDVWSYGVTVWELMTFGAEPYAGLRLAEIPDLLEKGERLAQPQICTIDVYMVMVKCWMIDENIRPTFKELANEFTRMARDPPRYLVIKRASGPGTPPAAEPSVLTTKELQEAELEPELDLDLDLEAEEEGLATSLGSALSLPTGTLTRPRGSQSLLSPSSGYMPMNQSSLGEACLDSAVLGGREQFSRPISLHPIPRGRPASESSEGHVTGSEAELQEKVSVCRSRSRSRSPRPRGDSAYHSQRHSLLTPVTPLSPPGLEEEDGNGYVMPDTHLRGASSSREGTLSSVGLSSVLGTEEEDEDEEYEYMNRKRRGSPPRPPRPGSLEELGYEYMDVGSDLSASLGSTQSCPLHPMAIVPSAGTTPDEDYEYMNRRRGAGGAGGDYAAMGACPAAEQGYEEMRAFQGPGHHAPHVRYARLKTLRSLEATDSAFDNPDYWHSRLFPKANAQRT
T1 sequence (P06494 23-1257 partner): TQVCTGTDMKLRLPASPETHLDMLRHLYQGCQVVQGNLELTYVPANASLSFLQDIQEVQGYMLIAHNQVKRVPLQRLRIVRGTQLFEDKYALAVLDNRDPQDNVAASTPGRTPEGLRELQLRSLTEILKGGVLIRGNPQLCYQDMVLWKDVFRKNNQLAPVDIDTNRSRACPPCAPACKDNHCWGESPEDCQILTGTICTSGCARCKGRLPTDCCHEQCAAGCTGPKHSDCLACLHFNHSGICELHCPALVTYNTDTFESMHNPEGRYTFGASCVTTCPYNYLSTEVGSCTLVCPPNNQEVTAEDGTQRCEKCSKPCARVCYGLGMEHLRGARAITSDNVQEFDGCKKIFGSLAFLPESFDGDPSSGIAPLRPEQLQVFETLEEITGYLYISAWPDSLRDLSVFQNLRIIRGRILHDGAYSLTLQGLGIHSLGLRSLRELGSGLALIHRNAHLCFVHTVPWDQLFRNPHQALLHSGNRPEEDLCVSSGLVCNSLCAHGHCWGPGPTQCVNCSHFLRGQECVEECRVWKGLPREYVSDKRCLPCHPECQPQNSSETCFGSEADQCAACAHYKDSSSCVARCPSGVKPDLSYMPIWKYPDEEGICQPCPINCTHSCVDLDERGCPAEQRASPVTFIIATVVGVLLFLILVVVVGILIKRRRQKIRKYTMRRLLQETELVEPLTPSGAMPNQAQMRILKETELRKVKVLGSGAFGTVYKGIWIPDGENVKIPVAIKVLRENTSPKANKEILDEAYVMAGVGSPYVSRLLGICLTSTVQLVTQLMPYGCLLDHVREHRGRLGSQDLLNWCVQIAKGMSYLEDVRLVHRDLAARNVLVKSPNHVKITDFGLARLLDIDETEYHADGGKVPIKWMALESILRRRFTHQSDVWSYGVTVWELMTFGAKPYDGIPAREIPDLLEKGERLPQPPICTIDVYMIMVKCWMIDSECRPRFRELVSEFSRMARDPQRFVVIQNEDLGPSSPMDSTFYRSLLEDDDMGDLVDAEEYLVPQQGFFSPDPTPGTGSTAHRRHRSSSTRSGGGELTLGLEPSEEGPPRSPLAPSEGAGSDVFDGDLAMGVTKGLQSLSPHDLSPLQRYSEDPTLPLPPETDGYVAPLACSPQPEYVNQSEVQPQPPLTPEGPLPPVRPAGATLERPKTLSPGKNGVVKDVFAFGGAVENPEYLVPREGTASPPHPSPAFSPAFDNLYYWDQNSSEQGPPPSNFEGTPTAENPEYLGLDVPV
Listing: EC50 of selected molecules
Write it as a number; the unit µM goes unstated.

Some solved entries appear below for comparison.
molecule="huNRG1(S177-F229)(NRGE1C) (D48T_F49Q_M50I) 6xHis: 6xHis-tagged NRG1 variant SEQ ID NO:118 (protein, 6xHis tag; huNRG1(S177-F229)(NRGE1C) (D48T_F49Q_M50I) 6xHis) SHLVKCGEKHKSFCVNGGECFMIEGPSNPSRYLCKCPNEFTGDRCQETQIASFGGGGEGGGGAGGGGHHHHHH" measurementunit=µM number=10
molecule="huNRG1(S177-F229)(NRGE1C) 6xHis: 6xHis-tagged NRG1 variant SEQ ID NO:117 (protein, 6xHis tag; huNRG1(S177-F229)(NRGE1C) 6xHis) SHLVKCGEKHKSFCVNGGECFMIEGPSNPSRYLCKCPNEFTGDRCQEDFMASFGGGGEGGGGAGGGGHHHHHH" measurementunit=µM number=10
molecule="huNRG1(S177-F229)(NRGE1C) (E47A_D48P_F49H_M50I) 6xHis: 6xHis-tagged NRG1 variant SEQ ID NO:119 (protein, 6xHis tag; huNRG1(S177-F229)(NRGE1C) (E47A_D48P_F49H_M50I) 6xHis) SHLVKCGEKHKSFCVNGGECFMIEGPSNPSRYLCKCPNEFTGDRCQAPHIASFGGGGEGGGGAGGGGHHHHHH" measurementunit=µM number=10

## Input Which value of EC50 has been reported for huNRG1(S177-F229)(NRGE1D) (E47K_D48L_F49D_M50I) 6xHis: 6xHis-tagged NRG1 variant SEQ ID NO:127 (protein, 6xHis tag; huNRG1(S177-F229)(NRGE1D) (E47K_D48L_F49D_M50I) 6xHis) SHLVKCGESHKSFCVNGGECYMVEGSSIPSRYLCKCPNEFTGDRCQKLDIASFGGGGEGGGGAGGGGHHHHHH in the records?
## Output 0.0172
